Reported Ki values are given for each entry in this list.
- system.name: 1,4-dihydroxy-2-naphthoyl-CoA synthase (Mycobacterium tuberculosis, UniProt P9WNP5)
- Sequence (P9WNP5 whole entry): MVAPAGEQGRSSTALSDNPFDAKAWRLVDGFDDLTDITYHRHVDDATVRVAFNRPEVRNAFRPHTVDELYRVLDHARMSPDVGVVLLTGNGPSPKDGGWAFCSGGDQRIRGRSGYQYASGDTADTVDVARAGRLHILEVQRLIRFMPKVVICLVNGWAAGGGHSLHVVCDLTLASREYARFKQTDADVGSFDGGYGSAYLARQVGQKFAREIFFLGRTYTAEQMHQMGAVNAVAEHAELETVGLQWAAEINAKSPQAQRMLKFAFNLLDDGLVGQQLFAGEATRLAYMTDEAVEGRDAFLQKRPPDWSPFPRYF
- procedure.summary: Non-competitive inhibition of Mycobacterium tuberculosis MenB expressed in Escherichia coli BL21 (DE3)
Kindly answer with a numeric value in µM, unit omitted.

Examples from the recorded data:
# query.smiles, Ki, µM
records = [
    ("COC(=O)/C=C1\\Nc2cc(Cl)ccc2OC1=O", 22.5),
    ("COC(=O)/C=C1\\Nc2cc(F)ccc2OC1=O", 11.5),
]

Query string: Endpoint output: Ki of COC(=O)/C=C1\Nc2ccccc2OC1=O . Value?
Result string: 9.1
